# key: entry, value: AC50
# system: Alpha-2A adrenergic receptor (Homo sapiens); further: assay procedure not described here
# Sequence (P08913 whole entry): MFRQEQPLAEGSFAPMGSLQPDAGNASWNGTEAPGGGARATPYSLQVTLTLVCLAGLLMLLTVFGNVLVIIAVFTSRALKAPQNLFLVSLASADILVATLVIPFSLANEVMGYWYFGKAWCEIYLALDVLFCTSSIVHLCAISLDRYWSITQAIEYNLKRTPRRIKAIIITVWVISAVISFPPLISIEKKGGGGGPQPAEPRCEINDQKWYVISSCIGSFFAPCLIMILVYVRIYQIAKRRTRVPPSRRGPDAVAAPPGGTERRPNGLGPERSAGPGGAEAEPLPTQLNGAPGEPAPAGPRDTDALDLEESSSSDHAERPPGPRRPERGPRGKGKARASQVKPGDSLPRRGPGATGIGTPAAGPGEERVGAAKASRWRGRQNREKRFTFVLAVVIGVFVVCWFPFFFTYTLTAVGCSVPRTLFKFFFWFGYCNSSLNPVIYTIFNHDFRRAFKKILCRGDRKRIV
# Type: functional, cell-based

compound	AC50
O=C1CN2Cc3c(ccc(Cl)c3Cl)N=C2N1 [ANAGRELIDE]	> 10 µM
CC(=O)Nc1c(I)c(C(=O)N[C@H]2C(O)O[C@H](CO)[C@@H](O)[C@@H]2O)c(I)c(N(C)C(C)=O)c1I (stereo partly drawn) [METRIZAMIDE]	> 10 µM
OCCN1CCN(CC/C=C2/c3ccccc3Sc3ccc(Cl)cc32)CC1	> 10 µM
COC(=O)[C@H](c1ccccc1Cl)N1CCc2sccc2C1	> 30 µM
CC(C)=CCOc1ccc(/C=C/C(=O)c2ccc(OCC=C(C)C)cc2OCC(=O)O)cc1	> 30 µM
CCN(CC)C(=O)C1CN2CCc3cc(OC)c(OC)cc3C2CC1OC(C)=O (stereo not drawn) [BENZQUINAMIDE]	> 30 µM
Nc1ccc(C(=O)O)c(O)c1	> 30 µM
CC(C)C[C@H](CN)CC(=O)O	> 30 µM
Cc1ccc(NC(=O)C2(c3ccc4c(c3)OC(F)(F)O4)CC2)nc1-c1cccc(C(=O)O)c1	> 30 µM
C[n+]1ccccc1/C=N/O	> 30 µM
CC(=O)c1ccc2c(c1)N(CCCN1CCC(CCO)CC1)c1ccccc1S2	> 30 µM
CC(C)c1cc2c(cc1S(=O)(=O)O)[C@@]1(C)CCC[C@@](C)(C(=O)O)[C@@H]1CC2	> 30 µM
CCC(=O)OCC(=O)[C@@]1(OC(=O)CC)[C@@H](C)C[C@H]2[C@@H]3CCC4=CC(=O)C=C[C@]4(C)[C@@]3(F)[C@@H](O)C[C@@]21C [BETAMETHASONE DIPROPIONATE]	> 30 µM
C#Cc1cccc(Nc2ncnc3cc(OCCOC)c(OCCOC)cc23)c1	> 30 µM
CC1(C)C(C=C(Cl)Cl)C1C(=O)OCc1cccc(Oc2ccccc2)c1 (stereo not drawn)	> 10 µM
C=C(C)[C@@H]1CCC(C)=C[C@H]1c1c(O)cc(CCCCC)cc1O	> 10 µM
COc1cccc(N(C)C(=S)Oc2ccc3c(c2)CCCC3)n1 [LIRANAFTATE]	> 30 µM
CCCN(CCc1cccs1)[C@H]1CCc2c(O)cccc2C1	3.7 µM

* * *

Quick note: these are AC50 numbers for system: Cholecystokinin receptor type A (Homo sapiens); further: assay procedure not described here
Sequence (P32238 whole entry): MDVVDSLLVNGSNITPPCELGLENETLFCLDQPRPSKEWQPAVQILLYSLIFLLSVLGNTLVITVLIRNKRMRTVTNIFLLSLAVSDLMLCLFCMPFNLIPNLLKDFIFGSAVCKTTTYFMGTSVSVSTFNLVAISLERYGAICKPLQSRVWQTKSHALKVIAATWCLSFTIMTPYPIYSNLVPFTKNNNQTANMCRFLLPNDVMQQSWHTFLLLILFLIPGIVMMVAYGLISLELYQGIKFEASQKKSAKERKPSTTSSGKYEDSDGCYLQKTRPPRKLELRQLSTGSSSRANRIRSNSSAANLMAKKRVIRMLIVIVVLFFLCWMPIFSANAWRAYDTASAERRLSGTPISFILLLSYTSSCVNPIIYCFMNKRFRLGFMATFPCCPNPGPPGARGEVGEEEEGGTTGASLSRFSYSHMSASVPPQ

compound	AC50
CN(C)c1cc(CNCC(C)(C)C)c(O)c2c1C[C@H]1C[C@H]3[C@H](N(C)C)C(O)=C(C(N)=O)C(=O)[C@@]3(O)C(O)=C1C2=O [OMADACYCLINE]	> 30 µM
Cc1cnc(NC(=O)C2=C(O)c3ccccc3S(=O)(=O)N2C)s1 [MELOXICAM]	> 30 µM
O=c1oc2ccccc2c(O)c1Cc1c(O)c2ccccc2oc1=O [DICUMAROL]	> 10 µM
Cn1c(=O)c2[nH]cnc2n(C)c1=O [THEOPHYLLINE]	> 30 µM
CC[C@H]1OC(=O)[C@H](C)[C@@H](O[C@H]2C[C@@](C)(OC)[C@@H](O)[C@H](C)O2)[C@H](C)[C@@H](O[C@@H]2O[C@H](C)C[C@H](N(C)C)[C@H]2O)[C@](C)(O)C[C@@H](C)/C(=N\OCOCCOC)[C@H](C)[C@@H](O)[C@]1(C)O [ROXITHROMYCIN]	> 30 µM
COc1cc2c(Nc3ccc(Br)cc3F)ncnc2cc1OCC1CCN(C)CC1 [VANDETANIB]	> 10 µM
CNCC[C@@H](Oc1ccccc1C)c1ccccc1 [ATOMOXETINE]	> 30 µM
